Molecular target: KPC-2 (Klebsiella pneumoniae, UniProt Q9F663)
Construct: made in house
Sequence (Q9F663 25-293, looked up, species assumed): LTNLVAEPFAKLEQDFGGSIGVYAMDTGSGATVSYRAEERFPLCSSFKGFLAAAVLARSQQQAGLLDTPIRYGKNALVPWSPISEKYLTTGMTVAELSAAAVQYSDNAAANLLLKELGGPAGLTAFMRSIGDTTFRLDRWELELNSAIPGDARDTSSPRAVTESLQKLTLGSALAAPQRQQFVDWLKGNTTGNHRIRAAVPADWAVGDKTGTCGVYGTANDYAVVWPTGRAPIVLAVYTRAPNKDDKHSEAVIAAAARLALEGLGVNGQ
Assay: Competitive inhibition assay with nitrocefin, Ki
Type: biochemical
pKi: −log10 of the molar value.
Lab note: anything with pKi at or over 6 counts as criterion met; the rest go in criterion not met.

COMPOUND	CLASS NAME
CCCCC(=O)NCc1cn(Cc2cccc(B(O)O)c2)nn1	criterion not met
CC(C)CC(O)c1cn(Cc2cccc(B(O)O)c2)nn1 (centres unmarked)	criterion not met
COC(=O)c1cccc(CS(=O)(=O)NCc2cn(Cc3cccc(B(O)O)c3)nn2)c1	criterion not met
COC(=O)c1cccc(CS(=O)(=O)NCc2cnnn2Cc2cccc(B(O)O)c2)c1	criterion not met
[N-]=[N+]=NCc1cccc(B(O)O)c1	criterion not met
CN(C)c1ccc(-c2cn(Cc3cccc(B(O)O)c3)nn2)cc1	criterion met

* * *

Molecular target: AmpC (Escherichia coli)
Set-up: made in house
Settings: AmpC 20 mol%; warhead 3 + alkyne cluster; 37 °C, 24 h

MOLECULE	AC (amplification coefficient)
COC(=O)c1cccc(CS(=O)(=O)NCc2cn(Cc3cccc(B(O)O)c3)nn2)c1 [compound 7]	4-5
COC(=O)c1ccc(C(=O)NCc2cn(Cc3cccc(B(O)O)c3)nn2)cc1 [compound 12]	3-4
O=S(=O)(NCc1cnnn1Cc1cccc(B(O)O)c1)C1CCCCC1 [10a]	5-6
C#CCNC(=O)c1ccc(C(=O)OC)cc1 [Al-88]	3-4

* * *

Target: KPC-2 (Klebsiella pneumoniae)
Construct: made in house
Test: Competitive inhibition assay with nitrocefin, Ki
Format: biochemical
Settings: KPC-2; values in nM

MOLECULE	MEASUREMENT TARGET	Ki (nM)
NC(=O)c1cccc(OCc2cn(Cc3cccc(B(O)O)c3)nn2)c1 [compound 5]	KPC-2 (Klebsiella pneumoniae)	730

* * *

Biological target: AmpC (Escherichia coli, UniProt P00811)
Sequence (P00811 20-377): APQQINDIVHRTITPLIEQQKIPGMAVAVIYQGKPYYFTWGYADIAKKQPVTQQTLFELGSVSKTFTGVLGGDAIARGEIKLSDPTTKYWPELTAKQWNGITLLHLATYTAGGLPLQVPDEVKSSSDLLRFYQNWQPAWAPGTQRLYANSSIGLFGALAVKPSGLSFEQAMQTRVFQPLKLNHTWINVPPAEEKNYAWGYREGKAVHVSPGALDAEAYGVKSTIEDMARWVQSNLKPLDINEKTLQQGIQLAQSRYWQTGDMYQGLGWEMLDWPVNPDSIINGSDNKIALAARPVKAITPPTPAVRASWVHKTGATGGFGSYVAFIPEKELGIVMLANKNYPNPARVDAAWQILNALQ
Assay: Competitive inhibition assay with nitrocefin, Ki
Type: biochemical
Set-up: made in house
Settings: AmpC; values in nM
PROPERTY NAME: Ki (nM)

MOLECULE	MEASURED RESULT
O=C(CCC1CCCCC1)NCc1cn(Cc2cccc(B(O)O)c2)nn1	800
[N-]=[N+]=NCc1cccc(B(O)O)c1	700
CN(C)c1ccc(-c2cn(Cc3cccc(B(O)O)c3)nn2)cc1	280
COC(=O)c1cccc(CS(=O)(=O)NCc2cn(Cc3cccc(B(O)O)c3)nn2)c1	300
O=S(=O)(NCc1cnnn1Cc1cccc(B(O)O)c1)C1CCCCC1 [10a]	140
O=S(=O)(NCc1cn(Cc2cccc(B(O)O)c2)nn1)C1CCCCC1	600
COC(=O)c1ccc(C(=O)NCc2cn(Cc3cccc(B(O)O)c3)nn2)cc1	400
COC(=O)c1cccc(CS(=O)(=O)NCc2cnnn2Cc2cccc(B(O)O)c2)c1	170
